- assay_system: human Factor IXa (human, UniProt P00740 47-191; P00740 227-461)
- procedure_text: cell-based or functional assay
Square brackets hold non-standard residues; d marks the D form. Primed or numbered codes have the meaning given here. Side chains are listed from the residue outwards. Ends that are not written are not given here. * marks the point of attachment. Biotin = O=C1N[C@H]2[C@H](CS[C@H]2CCCCC(=O)*)N1; PEG2(3) = PEG2 spacer carrying biotin on Lys; 1Nal = N[C@@H](Cc1cccc2ccccc12)C(=O)O; NMeA = CN[C@@H](C)C(=O)O
readout_kind: EC50 [µM], FXa generation assay

Noted for GGALQQLTCPASYCWLFPMEHS : its EC50 [µM], FXa generation assay reads > 10 µM

Noted for [dR]RAPGKLTCLASYCWLSWTGIA (not fully specified; printed as rRAPGKLTCLASYCWLSWTGIA; cysteine pairing not given here) [rRAPGKLTCLASYCWLSWTGIA] : its EC50 [µM], FXa generation assay reads > 5 µM

Noted for RRAPGKLTCLASYCWLFWTGWAVLARVPVGWT [RRAPGKLTCLASYCWLF WTGWA VLARVPVGWT] : its EC50 [µM], FXa generation assay reads < 0.5 µM

Noted for RRAPGCLTALASYAWLCWTGIA-OH (cysteine pairing not given here) [RRAPGCLTALASYAWLCWTGIA-COOH] : its EC50 [µM], FXa generation assay reads > 20 µM

Noted for KLTCL[NMeA]SYCWLF (cysteine pairing not given here) [KLTCL-MeAla-SYCWLF] : its EC50 [µM], FXa generation assay reads > 20 µM

Noted for KLTCLASY[dC]WLF (cysteine pairing not given here) [KLTCLASYcWLF] : its EC50 [µM], FXa generation assay reads > 1 µM

Noted for KLTCLASYCWYF : its EC50 [µM], FXa generation assay reads < 0.5 µM

Noted for RRAPGKLTCLK([PEG2(3)-Biotin])SYCWLFWTGIA (cysteine pairing not given here) [RRAPGKLTCLK(PEG2-Biotin)SYCWLFWTGIA] : its EC50 [µM], FXa generation assay reads < 0.5 µM

Noted for KLTCAASYCWLF : its EC50 [µM], FXa generation assay reads < 0.5 µM

Noted for SKAGRPISPD[dR]RAAGKLTCLASYCWLFWTGIA (not fully specified; printed as SKAGRPISPDrRAAGKLTCLASYCWLFWTGIA; cysteine pairing not given here) [SKAGRPISPDrRAAGKLTCLASYCWLFWTGIA] : its EC50 [µM], FXa generation assay reads < 0.5 µM

Noted for [dR]RASGKLTCLASYCWLFWTGIA (not fully specified (C-terminus); printed as rRASGKLTCLASYCWLFWTGIA; cysteine pairing not given here) [rRASGKLTCLASYCWLFWTGIA] : its EC50 [µM], FXa generation assay reads < 0.5 µM

Noted for HYARVQLRCLDGYCWLLTKSRM : its EC50 [µM], FXa generation assay reads > 10 µM

Noted for TLTCRASYCQLF : its EC50 [µM], FXa generation assay reads > 1 µM

Noted for PNLLRVRTSEVRNPGKLTCLASYCWLFWTGIA [PNLLRVRTSE VRNPG KLTCLASYCWLFWTGIA] : its EC50 [µM], FXa generation assay reads < 0.5 µM

Noted for [dR]RAPGKSTCLASYCWLFWTGIA (not fully specified (C-terminus); printed as rRAPGKSTCLASYCWLFWTGIA; cysteine pairing not given here) [rRAPGKSTCLASYCWLFWTGIA] : its EC50 [µM], FXa generation assay reads < 0.5 µM

Noted for KRYVYRQMCLVSACWLLQLGYA : its EC50 [µM], FXa generation assay reads < 0.5 µM

Noted for RRAPGKLTCLASYCWLFSTGVATHANTTATAQ [RRAPGKLTCLASYCWLF STGVA THANTTATAQ] : its EC50 [µM], FXa generation assay reads > 1 µM

Noted for RRAPGKLQCLASYCWLFWTG[1Nal]A (not fully specified; printed as RRAPGKLQCLASYCWLFWTG-(1-Nal)-A; cysteine pairing not given here) [RRAPGKLQCLASYCWLFWTG-(1-Nal)-A] : its EC50 [µM], FXa generation assay reads < 0.5 µM

Noted for TALSRGLVTMRTAPDKLTCLASYCWLFWTGIA [TALSRGLVTM RTAPD KLTCLASYCWLFWTGIA] : its EC50 [µM], FXa generation assay reads < 0.5 µM

Noted for APPGGKRMCLVSGCQLFPWSAS : its EC50 [µM], FXa generation assay reads > 50 µM

Noted for RRRKLTCLASYCWLFRRR : its EC50 [µM], FXa generation assay reads > 1 µM

Noted for PRIRTSGPGSRSASGKLTCLASYCWLFWTGIA : its EC50 [µM], FXa generation assay reads < 0.5 µM
